measurementProtocol: Pharmacokinetic study in sham and myocardial ischemia model rats after a single oral dose of QSKL (UHPLC-psMS/MS of plasma, non-compartmental analysis)
experimentalConditions: male, Sprague-Dawley, rat, plasma, po, 8 g/kg, Cmax, sham group (SG) rats, oral administration of QSKL, plasma, mean ± SD, n = 6
quantity: Cmax (ng/mL)

COc1ccc(-c2coc3cc(O)ccc3c2=O)cc1O [calycosin] = 0.3

(1) COC(=O)C1=CO[C@@H](O[C@@H]2O[C@H](CO)[C@@H](O)[C@H](O)[C@H]2O)[C@@H]2[C@H](C)O[C@@H](O)C[C@H]12 [morroniside]
(2) COc1ccc(-c2coc3cc(O)ccc3c2=O)cc1 [formononetin]
Q. For 1 and 2 , which recorded Cmax is lower? When you have decided, please share the label of that item.
A. 2
(2: 0.243 ng/mL, 1: 2.04 ng/mL)
